// phosphorylation enrichment lookup, one value per entry
Biological target: FGFR1 (UniProt P11362)
Sequence (P11362 whole entry, looked up): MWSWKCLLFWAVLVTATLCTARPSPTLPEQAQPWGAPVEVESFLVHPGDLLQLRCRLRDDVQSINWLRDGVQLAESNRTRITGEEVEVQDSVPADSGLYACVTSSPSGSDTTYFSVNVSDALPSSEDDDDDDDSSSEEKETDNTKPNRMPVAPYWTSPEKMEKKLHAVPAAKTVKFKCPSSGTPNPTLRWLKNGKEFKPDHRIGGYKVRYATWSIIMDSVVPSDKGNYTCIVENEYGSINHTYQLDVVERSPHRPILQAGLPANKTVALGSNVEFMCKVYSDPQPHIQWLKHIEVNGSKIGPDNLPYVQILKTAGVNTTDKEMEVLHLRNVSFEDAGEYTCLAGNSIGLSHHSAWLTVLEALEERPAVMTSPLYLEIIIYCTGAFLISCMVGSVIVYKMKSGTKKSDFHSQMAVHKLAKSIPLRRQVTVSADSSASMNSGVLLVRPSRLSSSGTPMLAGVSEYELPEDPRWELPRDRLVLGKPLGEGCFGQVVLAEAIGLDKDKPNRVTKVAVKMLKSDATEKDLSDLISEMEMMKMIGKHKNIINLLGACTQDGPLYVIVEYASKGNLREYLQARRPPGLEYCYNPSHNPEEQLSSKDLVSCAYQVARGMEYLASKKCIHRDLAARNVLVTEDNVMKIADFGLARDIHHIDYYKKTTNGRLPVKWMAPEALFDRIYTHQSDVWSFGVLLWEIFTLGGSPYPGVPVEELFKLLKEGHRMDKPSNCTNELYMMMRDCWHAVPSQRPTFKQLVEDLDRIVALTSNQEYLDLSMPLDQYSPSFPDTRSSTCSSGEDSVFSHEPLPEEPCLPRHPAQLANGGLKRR
Assay: phosphorylation enrichment, bacterial display (enrichment ratio); higher = better substrate or ligand; peptides without Tyr show the background;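 also: 11-residue human phosphosite peptides and single-mutation variants displayed on the E. coli surface, counted by deep sequencing, each peptide's frequency after selection divided by its frequency in the unselected input library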;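 also: frequency after pTyr selection over input frequency; kinase dosed for 20-30% of maximal phosphorylation in three min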
measured_property: phosphorylation enrichment

[[record]]
sequence_data = "ATDLAYFLVRK [ASL_Y375_YF]"
observed_result = 1.26

[[record]]
sequence_data = "SVTCTYSPALI [TP53_Y126_N131I]"
observed_result = 0.534

[[record]]
sequence_data = "AVLSLCASGRT [ACTA2_Y145_Y145C]"
observed_result = 0.505

[[record]]
sequence_data = "GRLGEYDIDEV [SMS_Y134_V132G]"
observed_result = 0.551

[[record]]
sequence_data = "YSMGCYEFSLG [HMGCL_Y198_I200F]"
observed_result = 1.23

[[record]]
sequence_data = "LRVHSYKSMQH [DRC7_Y516_P521H]"
observed_result = 0.533

[[record]]
sequence_data = "KLIETYFSKNF [PLP1_Y50_YF]"
observed_result = 0.449

